test system: MV-4-11; test: Cell proliferation modulatory activity, MV-4-11; assay type: cell-based; conditions: Homo sapiens, MV4-11; Table 45; read-out: MV-4-11 IC50
measured-parameter: IC50

Reported IC50 of `FC(F)(F)c1cccc(Nc2nc3c(-c4nnc[nH]4)cccc3c3cnccc23)c1` : < 500 nM

---

experiment: Pharmacokinetics after IV and PO dose in beagle dogs; assay type: in vivo; conditions: dog, plasma; PO 3.80 mg/kg, Beagle dogs
measured-parameter: Tmax (min)
State just the number; it will be interpreted in min.

Reported Tmax of `O=C(O)c1ccc2c(c1)nc(Nc1cccc(Cl)c1)c1ccncc12` : 30

---

system: MV-4-11; assay: Cell proliferation modulatory activity, MV-4-11; type: cell-based; details: Homo sapiens, MV4-11; Table 45; read-out: MV-4-11 IC50
pIC50: −log10 of the molar value.
measured-parameter: pIC50

Observe how each entry below is paired with its result.
Reported pIC50 of `Clc1cccc(Nc2nc3c(-c4nc[nH]n4)cccc3c3ccncc23)c1` : < 5.00

Reported pIC50 of `COCCNc1nc2c(-c3nc[nH]n3)cccc2c2cnccc12` : > 7.00

Continuing:
Reported pIC50 of `c1ccc(Nc2nc3c(-c4nnc[nH]4)cccc3c3cnccc23)cc1` : > 7.00

Reported pIC50 of `CN(c1ccc(Cl)cc1)c1nc2c(-c3nc[nH]n3)cccc2c2cnccc12` : > 6.00

Reported pIC50 of `Clc1ccc(Nc2nc3c(-c4nc[nH]n4)cccc3c3cnccc23)cc1` : > 6.30

Reported pIC50 of `N#Cc1cccc(Nc2nc3c(-c4nc[nH]n4)cccc3c3cnccc23)c1` : > 7.00

Reported pIC50 of `Fc1ccc(Nc2nc3c(-c4nc[nH]n4)cccc3c3cnccc23)c(F)c1` : > 7.00

Reported pIC50 of NC(=O)c1cccc2c1nc(Nc1cccc(Cl)c1)c1ccncc12 [drawing 2246] : > 7.00

Reported pIC50 of `Fc1ccc(Cl)cc1Nc1nc2c(-c3nnc[nH]3)cccc2c2cnccc12` : > 7.00

---

tested on: Jurkat; assay: Cell proliferation modulatory activity, Jurkat; assay type: cell-based; conditions: Homo sapiens
measured-parameter: IC50 (µM)

Reported IC50 of `CNC(=O)c1ccc2c(c1)nc(Nc1cccc(C(F)(F)F)c1)c1nc(NC3CC3)ncc12` : 3.65

Reported IC50 of `Nc1ncc2c(n1)c(Nc1ccc(F)c(Cl)c1)nc1cc(C(=O)O)ccc12` : 4.34

Reported IC50 of `CNc1ncc2c(n1)c(NC1CC1)nc1cc(C(=O)O)ccc12` : 9.68

Reported IC50 of `CN(C)c1ncc2c(n1)c(Nc1cccc(Cl)c1)nc1cc(C(=O)O)ccc12` : 5.83

Reported IC50 of `COCCNc1ncc2c(n1)c(Nc1ccc(F)c(Cl)c1)nc1cc(C(=O)O)ccc12` : 0.413

Reported IC50 of `O=C(O)c1ccc2c(c1)nc(Nc1cccc(Cl)c1)c1nc(NC3CC3)ncc12` : 1.29

[A] NC(=O)c1ccc2c(c1)nc(Nc1cccc(Cl)c1)c1ccncc12 [drawing 1674]
[B] C#Cc1cccc(Nc2nc3cc(C(=O)O)ccc3c3cnc(NCCC)nc23)c1
# input For this pair, A and B , which shows a numerically higher IC50? Write the label of whichever entry you select.
# output B
(B: 2.67 µM, A: 0.91 µM)

[1] Nc1ncc2c(n1)c(Nc1cccc(C(F)(F)F)c1)nc1cc(C(=O)O)ccc12
[2] CNC(=O)c1ccc2c(c1)nc(NC1CC1)c1nc(NC3CC3)ncc12
# input For this pair, 1 and 2 , which shows a numerically higher IC50? Write the label of whichever entry you select.
# output 1

[A] CCOCCCNc1ncc2c(n1)c(NC1CC1)nc1cc(C(=O)O)ccc12
[B] O=C(O)c1ccc2c(c1)nc(N1CCOCC1)c1nc(NC3CC3)ncc12 [drawing 1627]
# input For this pair, A and B , which shows a numerically higher IC50? Write the label of whichever entry you select.
# output B
(B: 3.67 µM, A: 2.02 µM)

[a] C#Cc1cccc(Nc2nc3cc(C(=O)O)ccc3c3cnc(NC)nc23)c1
[b] CCNc1ncc2c(n1)c(Nc1cccc(Cl)c1)nc1cc(C(=O)O)ccc12
# input For this pair, a and b , which shows a numerically higher IC50? Write the label of whichever entry you select.
# output b
(b: 3.06 µM, a: 1.29 µM)
